Give IC50 for every item shown.
Target: porcine 17β-HSD 1 (Sus scrofa, UniProt B2X0A4)
Sequence (B2X0A4 1-321): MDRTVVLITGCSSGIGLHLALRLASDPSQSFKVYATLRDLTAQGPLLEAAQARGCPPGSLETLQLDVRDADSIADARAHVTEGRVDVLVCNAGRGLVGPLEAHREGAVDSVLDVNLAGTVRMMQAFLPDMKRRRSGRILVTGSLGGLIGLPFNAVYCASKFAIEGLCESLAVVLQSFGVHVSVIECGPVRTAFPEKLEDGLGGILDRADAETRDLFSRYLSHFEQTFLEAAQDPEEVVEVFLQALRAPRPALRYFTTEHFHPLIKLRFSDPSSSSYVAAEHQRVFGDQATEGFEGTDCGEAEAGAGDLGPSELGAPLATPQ
Assay: In vitro enzymatic activity, recombinant porcine 17β-HSD 1
Settings: Pig 17β-HSD 1; 0.005 µM to 5 µM inhibitor
Field: numeric (nM). Do not append units.

Readout IC50 for Cc1cnc(NC(=O)CC[C@@H]2CC(=O)[C@@]3(C)CC[C@@H]4c5ccc(O)cc5CC[C@H]4[C@H]23)s1 , test system porcine 17β-HSD 1 (Sus scrofa, UniProt B2X0A4), was 0.34

Readout IC50 for C[C@]12CC[C@@H]3c4ccc(O)cc4CC[C@H]3[C@@H]1[C@@H](CCCC(=O)N1CCOCC1)CC2=O , test system porcine 17β-HSD 1 (Sus scrofa, UniProt B2X0A4), was 457
